system: SK-OV-3; assay: NCI one-dose SRB assay (Ovarian Cancer); assay type: cell-based, human; conditions: SK-OV-3, 1.00E-5 Molar
Each entry below lists one item and its recorded Growth Percent value.
Please state the figure in %; there is no need to write the unit.

Observed Growth Percent on SK-OV-3 for COc1ccc(-c2ccc(NC(=O)Nc3cccc(C(F)(F)F)c3)c(C)n2)cc1 , please.
82.08

What Growth Percent appears in the records for this molecule with SK-OV-3? COc1ccc(-c2ccc(NC(=O)Nc3cccc(C(F)(F)F)c3)c(C)n2)cc1OC
101.37

Next, consider the following molecule.
Test system SK-OV-3; read-out Growth Percent; what value for COc1cccc(NC(=O)Nc2ccc(-c3ccc(OC)c(OC)c3)nc2C)c1 ?
99.49
